Test system: Mus musculus
method_notes: Biodistribution of intravenously injected [82Br]-labeled compound in liver of BDF1 female mice bearing subcutaneous Lewis lung carcinoma after 1 hours
Type: ADME, organism-based
stated_conditions: in vivo, iv
attribute_measured: Injected dose/g

Endpoint output: Injected dose/g of O=c1[nH]c(=O)n([C@H]2O[C@@H](CO)[C@H](O)[C@H]2F)cc1Br . Value? 0.34%

----------
Species: Mus musculus
method_notes: Inhibition constant for influx competition with [6-3H]thymidine in mouse erythrocytes
I'd be grateful if you could share measured Ki for these entries.
Answers are plain numbers, in µM.

Known results for compounds:
compound	val
O=c1ccn([C@@H]2O[C@H](CO)[C@@H](O)[C@H]2F)c(=O)[nH]1	120
Cc1cn([C@H]2C[C@H](O)[C@@H](CO)O2)c(=O)[nH]c1=O [DOXRIBTIMINE]	80

Value sought for every listed compound: Ki.
1. O=c1[nH]c(=O)n([C@H]2C[C@H](O)[C@@H](CO)O2)cc1I [IDOXURIDINE]
2. O=c1[nH]c(=O)n([C@H]2O[C@@H](CO)[C@H](O)[C@H]2F)cc1Br
3. O=c1[nH]c(=O)n([C@@H]2O[C@H](CO)[C@@H](O)[C@H]2F)cc1I
4. O=c1[nH]c(=O)n([C@H]2C[C@H](O)[C@@H](CO)O2)cc1Br [BROXURIDINE]
5. O=c1ccn([C@H]2C[C@H](O)[C@@H](CO)O2)c(=O)[nH]1 [DEOXYURIDINE]

1. 210
2. 390
3. 410
4. 140
5. 130
